# self-cleavage annotations
B1: LINE1-full (parent)
chain: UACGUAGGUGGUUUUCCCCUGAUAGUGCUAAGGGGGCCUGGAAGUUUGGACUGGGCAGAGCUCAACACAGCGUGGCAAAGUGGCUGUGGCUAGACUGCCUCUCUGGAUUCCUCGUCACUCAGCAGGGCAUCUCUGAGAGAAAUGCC

variants of: B1; test: self-cleavage, relative activity (ratio to wild type); higher = more cleavage; in vitro, sequencing; the parent is a self-cleaving ribozyme

sequence-content | self-cleavage
UACGUAGGUGGUUUUCCCCUGAUAGUGCUAAGGGGGCCUGGAAGUUUGGACUGGGCAGAGCUCAACACAGCGUGGCAAAGUGGCUGUGGCUAGAAUGCCUCUCUGGAUUCCUCGUCACUCAGCAGGGCAUCUCUGAGGGAAAUGCC [C95A A138G] | 0.09
UACGUAGGUGGUUUUCCCCUGAUAGUGCUAAGGGGGCCUGGAAGUUUGGACUGGGCAGAGCUCAACACAGCGUGGCGAAGUGGCUGUGGCUAGACUGCCUCUCUGGAUUCCUCGUCACUCAGCAGGGCAUCUCUUAGAGAAAUGCC [A77G G135U] | 0.63
UACGUAGGUGGUUUUCCCCUGGUAGUGCUAAGGGGGCCUGGAAGUUUGGACUGGGCAGAGCUCAACACAGCGUGGCAAAGUGGCUGUGGCUAGACUGCCUCUCUGGAUUCCUCGUCACUCAGCAGGGCAUCACUGAGAGAAAUGCC [A22G U132A] | 0.48
UACGUAGGUGGUUUUCCCCUGAUAGUGCUAAGGGGGCCUGGAAGUCUGGACUGGGCAGAGCUCAACACAGCGUGGCAAAGUGGCUGUGACUAGACUGCCUCUCUGGAUUCCUCGUCACUCAGCAGGGCAUCUCUGAGAGAAAUGCC [U46C G89A] | 0.04
UACGUAGAUGGUUUUCCCCUGAUAGUGCUAAGGGGGCCUGGAAGUUUGGACUGGGCAGAGCUCAACACAGCGUGGCAAAGUGGCUGUGGCUAGACUGCCUCUCUGGGUUCCUCGUCACUCAGCAGGGCAUCUCUGAGAGAAAUGCC [G8A A107G] | 1.58

// field: self-cleavage; key: UACGUAGGUGGUUUUCCCCUGAUAGUGCUAGGGGGGCCUGGAAGUUUGGACUGGGCAGAGCUCAACACAGCGUGGCAAAGUGGCUGUGGCUAGACUGCCUCUCUGGAUUCCUCGUCACUCAGCAGGGCAUCUCUGAGAGAAAUGGC [A31G C145G] ; value = 1.63

// field: self-cleavage; key: UACGUAGGUGGGUUUCCCCUGAUAGUGCUAAGGGGGCCUGGAAGUUCGGACUGGGCAGAGCUCAACACAGCGUGGCAAAGUGGCUGUGGCUAGACUGCCUCUCUGGAUUCCUCGUCACUCAGCAGGGCAUCUCUGAGAGAAAUGCC [U12G U47C] ; value = 1.04

// field: self-cleavage; key: UACGUAGGUGGGUUUCCCCUGAUAGUGCUAAGGGGGCCUGGAAGUUUGGACUGGGCAGAGCUCAACACAGCGUGGCAAAGUGGCCGUGGCUAGACUGCCUCUCUGGAUUCCUCGUCACUCAGCAGGGCAUCUCUGAGAGAAAUGCC [U12G U85C] ; value = 0.4

// field: self-cleavage; key: UACGUAGGAGGUUUUCCCCAGAUAGUGCUAAGGGGGCCUGGAAGUUUGGACUGGGCAGAGCUCAACACAGCGUGGCAAAGUGGCUGUGGCUAGACUGCCUCUCUGGAUUCCUCGUCACUCAGCAGGGCAUCUCUGAGAGAAAUGCC [U9A U20A] ; value = 1.41

// field: self-cleavage; key: UACGUAGGUGGUUUUCCCCUGAUAGUGCUAAGGGGGCCUGGAAGUUUGGACUGGGCAGAGAUCAACACAGCGUGGCAAAGUGGCUGUGGCUAGACUGCCUCUCUGGGUUCCUCGUCACUCAGCAGGGCAUCUCUGAGAGAAAUGCC [C61A A107G] ; value = 0

// field: self-cleavage; key: UACGUAGGUGGUUUUCCCCUGAUAAUGCUAAGGGGGCCUGGAAGUUUGGACUGGGCAGAGCUCAACACAGCGUGGCAAAGUGGCUGUGGCUAGACUGCCUCUCUGGAUUCCUCGACACUCAGCAGGGCAUCUCUGAGAGAAAUGCC [G25A U115A] ; value = 1.05

// field: self-cleavage; key: UACGUAGGUGGUUUUCCCCUGAUAGUGCUAAGGGGGCCUGGAAGUAUGGACUGGGCAGAGCUCAACACAGCGUGGCAAAGUGGCUGUGGCUAGACUGCCUCUCUGGAUUCCUCGUCACUCAGCAGGGCAUCUCCGAGAGAAAUGCC [U46A U134C] ; value = 1.84

// field: self-cleavage; key: UACGUAGGUGGUUUUCCCCUGAUAGUGCUAAGGGGGCCUGGAAGUUUGGACUGGGCAGAGCUCAACACAGCGCGGCAAAGUGGCUGUGGCUAGACUGCCUUUCUGGAUUCCUCGUCACUCAGCAGGGCAUCUCUGAGAGAAAUGCC [U73C C101U] ; value = 1.01

// field: self-cleavage; key: UACGUAGGUGGUUUUCCCCUGAUAGUGCUAAGGGGGCCUGGAAGUUUGGACUGGGCAUAGCACAACACAGCGUGGCAAAGUGGCUGUGGCUAGACUGCCUCUCUGGAUUCCUCGUCACUCAGCAGGGCAUCUCUGAGAGAAAUGCC [G58U U62A] ; value = 0.02
